- TARGET_OF_ASSAY: Nucleoli Translocation, AR (gene 367) (UniProt P10275)
- Sequence (P10275 whole entry, looked up): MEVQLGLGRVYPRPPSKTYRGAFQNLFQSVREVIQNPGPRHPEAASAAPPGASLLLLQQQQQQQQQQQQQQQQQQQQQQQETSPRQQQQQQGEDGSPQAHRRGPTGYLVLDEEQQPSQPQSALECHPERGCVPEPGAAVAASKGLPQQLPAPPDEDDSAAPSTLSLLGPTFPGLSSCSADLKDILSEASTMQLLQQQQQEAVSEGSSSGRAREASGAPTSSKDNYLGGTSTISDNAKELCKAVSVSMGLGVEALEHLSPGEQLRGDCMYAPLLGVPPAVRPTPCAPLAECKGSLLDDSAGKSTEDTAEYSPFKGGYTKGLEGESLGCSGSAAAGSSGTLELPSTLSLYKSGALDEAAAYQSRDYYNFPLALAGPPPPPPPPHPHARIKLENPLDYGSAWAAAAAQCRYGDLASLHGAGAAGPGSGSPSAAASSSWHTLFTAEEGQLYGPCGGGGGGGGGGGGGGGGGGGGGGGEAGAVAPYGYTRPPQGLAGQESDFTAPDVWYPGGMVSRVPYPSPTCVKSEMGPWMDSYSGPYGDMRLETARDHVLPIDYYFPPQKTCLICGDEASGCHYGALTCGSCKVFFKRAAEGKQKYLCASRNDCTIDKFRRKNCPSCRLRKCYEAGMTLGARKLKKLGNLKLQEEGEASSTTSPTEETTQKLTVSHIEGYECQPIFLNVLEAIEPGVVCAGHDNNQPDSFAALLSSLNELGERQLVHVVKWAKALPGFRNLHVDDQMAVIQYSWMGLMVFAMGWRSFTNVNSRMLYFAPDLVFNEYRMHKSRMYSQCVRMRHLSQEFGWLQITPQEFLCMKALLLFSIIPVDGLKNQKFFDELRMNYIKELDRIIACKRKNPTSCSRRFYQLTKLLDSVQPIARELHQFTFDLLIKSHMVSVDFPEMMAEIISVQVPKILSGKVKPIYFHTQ
- ASSAY_TEXT: UPITT_HCI_U2OS_AR_TIF2_Nucleoli_Antagonist: University of Pittsburgh U2OS Androgen Receptor-Transcriptional Intermediary Factor 2 (AR-TIF2) Antagonism High Content Imaging Assay for Nucleoli Translocation (AID 2283997)
- Source text: UPITT_AR_TIF2_PPIB is a cell-based, high-content imaging assay that uses U2OS, a human osteosarcoma cell line, expressing a human androgen receptor fused to red fluorescent protein and the coactivator TIF2 fused to green fluorescent protein. UPITT_HCI_U2OS_AR_TIF2_Nucleoli_Antagonist is one of four assay components measured from the UPITT_AR_TIF2_PPIB assay. […]
Records with an inconclusive call do not appear. Active and inactive are the calls of the source. How the source made its calls: active means hit-call score of the fitted dose curve at least 0.9, where 1 is the maximum; inconclusive means response in the unintended direction; inactive means score below 0.9.
ASSAY_ENDPOINT: AC50

SMILES_DATA: OCc1cccc(Oc2ccccc2)c1
AC50: inactive

SMILES_DATA: CC(=O)O[C@H]1C[C@@H]2CC[C@@]1(C)C2(C)C
AC50: inactive

SMILES_DATA: Cc1ccc(S(=O)(=O)Oc2ccc(N=Nc3ccc(-c4ccc(N=Nc5c(O)ccc6cc(S(=O)(=O)O)cc(S(=O)(=O)O)c56)c(C)c4)cc3C)cc2)cc1
AC50: inactive

SMILES_DATA: CC(C)CCCCCCc1ccc(OCCOCCO)cc1
AC50: inactive

SMILES_DATA: CCOC(=O)[C@@H](C)Oc1ccc(Oc2nc3ccc(Cl)cc3o2)cc1
AC50: inactive

Now for a further compound.
AC50 for Nucleoli Translocation, AR (gene 367) (UniProt P10275) with input CCc1cc(Cc2cc(CC)cc(C(C)(C)C)c2O)c(O)c(C(C)(C)C)c1 equals 62.2 µM (active)

----------
- ASSAY_TEXT: ATG_BRE_CIS: Attagene CIS-FACTORIAL HepG2 Assay for human Bone Morphogenetic Protein (BMP) Response Element (BRE) (AID 2282933)
- COND: HepG2 BMP response element reporter, Attagene transcription factor profiling; actives raise or lower the signal
Calls of active or inactive are those of the source. How the source made its calls: active means hit-call score of the fitted dose curve at least 0.9, where 1 is the maximum; inactive means score below 0.9.
ASSAY_ENDPOINT: outcome

The examples below pair each entry with its known result.
COMPOUND: C=Cc1ccc(C(C)(C)C)cc1
RECORDED_RESULT: inactive
--
COMPOUND: CC(=O)CC(=O)Nc1ccccc1
RECORDED_RESULT: inactive
--
COMPOUND: CC(C)(C)C1=CC(=O)C(C(C)(C)C)=CC1=O
RECORDED_RESULT: inactive
--
COMPOUND: C=CCCC(=O)/C=C/C1C(C)=CCCC1(C)C (stereo not drawn)
RECORDED_RESULT: inactive
--
COMPOUND: CCc1cc(C(C)(C)C)c(O)c(C(C)(C)C)c1
RECORDED_RESULT: inactive
--
COMPOUND: CCCOCCO
RECORDED_RESULT: inactive

The reported outcome of the compound O=C(O)c1cccnc1C(=O)O was inactive

Entry OCCCCC(O)CO (stereo not drawn) — recorded outcome = inactive

----------
- ASSAY_TEXT: TOX21_p53_BLA_p2_viability: Viability Assessment in the Tox21 HCT-116 p53 Agonism Beta-lactamase Assay, Phase 2 (AID 2283591);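 further: compound exposure lasted 16 h at 37 °C; actives lower the ATP signal meaning cytotoxicity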
Results filed as inconclusive are left out. Active and inactive are the calls of the source. Rule for the calls: active = hit-call score of the fitted dose curve at least 0.9, where 1 is the maximum; inconclusive = response in the unintended direction; inactive = score below 0.9.
Output constraint: value belongs to T = active, F = inactive

Field: example entries. Status: answers known.
MOLECULE: [Cl][Au]([Cl])[Cl]
CLASS_ASSIGNMENT: T
//
MOLECULE: O=CCc1ccccc1
CLASS_ASSIGNMENT: F
//
MOLECULE: CCCCCc1ccco1
CLASS_ASSIGNMENT: F

Exercise: Give the logged outcome of this assay for the following molecule: C=CCCC(=O)/C=C/C1C(C)=CCCC1(C)C (stereo not given)
Solution: F

Exercise: // return assay outcome for COc1ccc(N=Nc2cc(C)c(N=Nc3ccc(S(=O)(=O)O)cc3)cc2OC)cc1
Solution: F

Exercise: Fill in: this test's call for CCCCCCCCCCCCCCN(CCO)CCO is ___
Solution: F

Exercise: Status in this test for C=C(C#N)C(=O)OCC ?
Solution: F

Exercise: Give the logged outcome of this assay for the following molecule: O=C(O)CCCCCCCCC(=O)O
Solution: F

Exercise: Record lookup: outcome of this test for CSCCC=O ?
Solution: F

Values compiled from PubChem BioAssay (EPA / NIEHS).
